Listing: minimal bactericidal concentration (MBC) of selected molecules
# Test system: P. aeruginosa KM 97-5
# experiment.summary: Bactericidal activity test (MBC, phenol coefficient measuring method)
# Type: cell-based
# cond: 1 min
metric.name: minimal bactericidal concentration (MBC) (µg/mL)

INSERT INTO measurements (molecule, system_name, quantitative_readout) VALUES
  ('CC(=O)O.CCCCCCCCNC1=NC(C)(C)N=C(NCc2ccc(C)cc2)N1', 'P. aeruginosa KM 97-5', 6.3),
  ('N=C(NCCCCCCNC(=N)NC(=N)Nc1ccc(Cl)cc1)NC(=N)Nc1ccc(Cl)cc1.O=C(O)[C@H](O)[C@@H](O)[C@H](O)[C@H](O)CO.O=C(O)[C@H](O)[C@@H](O)[C@H](O)[C@H](O)CO [Control drug, chlorhexidine gluconate, reference compound]', 'P. aeruginosa KM 97-5', 31),
  ('CC(=O)O.CCCCCCCCNC1=NC(C)(C)N=C(NCCCCCC)N1', 'P. aeruginosa KM 97-5', 12.5),
  ('CC(=O)O.CCCCCCCCCNC1=NC(C)(C)N=C(NCc2ccccc2)N1', 'P. aeruginosa KM 97-5', 3.1);
